assay overview: Dissociation constant, pKa of the compound
Type: physicochemical
readout name: pKa

Consider the following illustrative entries.
CN1CCN(CC(O)Cn2c3ccc(Cl)cc3c3cc(Cl)ccc32)CC1 (stereo not given): 7.6
OC(CN1CCOCC1)Cn1c2ccc(Cl)cc2c2cc(Cl)ccc21 (stereo not given): 6.6
OC(Cn1ccnc1)Cn1c2ccc(Cl)cc2c2cc(Cl)ccc21 (stereo not given): 7.1

a = CCC(C)NCC(O)Cn1c2ccc(Cl)cc2c2cc(Cl)ccc21 (stereo not given)
b = OC(Cn1cncn1)Cn1c2ccc(Cl)cc2c2cc(Cl)ccc21 (stereo not given)
Problem: Hi! Which is lower in terms of pKa, the first one a or the second one b ? Your choice should be expressed through its label.
Result: b
(b: 2.7, a: 9.2)
